Source listed as ChEMBL document CHEMBL1141951.

- System: Plasmodium falciparum
- Test Details: Antimalarial activity as growth inhibition after 48 hrs against chloroquine-resistant Plasmodium falciparum FDL-NG
- Format: functional, organism-based
Quantity Name: IC50
Please answer in the form of a number followed by its unit of measurement.

get_value(item= C=C(C#N)C(O)c1ccc(C(=O)OC)nc1Cl (stereo unspecified) , readout=IC50) returns 6.75 µg/mL

get_value(item= C=C(C#N)C(O)c1cc(C)cnc1Cl (stereo unspecified) , readout=IC50) returns 10.5 µg/mL

get_value(item= C=C(C#N)C(O)c1cc(-c2ccccc2)cnc1Cl (stereo unspecified) , readout=IC50) returns 2.2 µg/mL

get_value(item= C=C(C(=O)OC)C(O)c1cc(-c2ccccc2)cnc1Cl (stereo unspecified) , readout=IC50) returns 10.8 µg/mL

get_value(item= C=C(C#N)C(O)c1cc(CC)cnc1Cl (stereo unspecified) , readout=IC50) returns 5.5 µg/mL

get_value(item= C=C(C(=O)OC)C(O)c1cc(C)cnc1Cl (stereo unspecified) , readout=IC50) returns 5.75 µg/mL
